Each recorded value in this set is attributed to patent US20220265819A1.

- Measurement target: T1, full length recombinant human 2N4R tau (amino acids 1-441) (human, UniProt P10636 1-758)
- T1 construct: Bought (rPeptide); recombinant, non-phosphorylated; also called recombinant tau
- T1 sequence (P10636 other isoform, or with tags, fused parts or gaps limits assumed): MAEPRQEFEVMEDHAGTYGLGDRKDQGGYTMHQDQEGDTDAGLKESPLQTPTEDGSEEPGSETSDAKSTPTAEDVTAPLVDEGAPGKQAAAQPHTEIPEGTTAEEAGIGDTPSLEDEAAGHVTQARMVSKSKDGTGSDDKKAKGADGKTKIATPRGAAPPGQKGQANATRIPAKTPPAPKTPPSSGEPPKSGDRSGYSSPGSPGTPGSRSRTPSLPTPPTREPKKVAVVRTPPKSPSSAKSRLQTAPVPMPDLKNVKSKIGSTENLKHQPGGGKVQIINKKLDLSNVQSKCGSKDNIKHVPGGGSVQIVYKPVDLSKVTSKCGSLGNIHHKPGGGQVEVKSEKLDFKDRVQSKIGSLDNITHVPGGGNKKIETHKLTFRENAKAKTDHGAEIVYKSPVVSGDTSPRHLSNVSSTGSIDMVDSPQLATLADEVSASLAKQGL
- Test protocol: SPR Biacore SCK, IgG on Protein A, tau analyte
Quantity kind: Relative KD (fold vs VH0VK0)
Output spec: scalar in fold vs VH0VK0, unitless text.

Would you please look over these solved cases?
# Binder, Endpoint unit, Relative KD
records = [
    ("Clone 16 (VH1Vκ4), humanised variant of clone #28, human IgG1 (antibody, V domains shown, also called VH1VK4) VH: QSLQESGGGLVKPSETLSLTCTVSGFSLNNYDMSWVRQAPGKGLEWIGTVSTTYRRYYASWAKGRFTISKTSSTTVDLKMTSLTAEDTATYFCAASGIWGRGTLVTVSS VL: DIQMTQSPSTLSASVGDRVTITCQSSQRVYSNYLAWYQQKPGQPPKRLIFLASTLESGVPSRFSGSGSGTEFTLTISSLQPDDFATYYCAGTYTGSIWAFGGGTKVEIK", "fold vs VH0VK0", 0.69),
    ("Clone 36 (VH6Vκ4), humanised variant of clone #28, human IgG1 (antibody, V domains shown, also called VH6VK4) VH: QVQLQESGPGLVKPSETLSLTCTVSGFSLNNYDMSWVRQAPGKGLEWIGTVSTTYRRYYADSVKGRFTISRDNSKNTLDLQMTSLTAEDTATYFCAASGIWGRGTLVTVSS VL: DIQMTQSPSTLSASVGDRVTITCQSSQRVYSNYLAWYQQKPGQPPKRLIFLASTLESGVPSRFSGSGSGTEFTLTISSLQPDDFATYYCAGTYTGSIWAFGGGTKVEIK", "fold vs VH0VK0", 2.72),
]

As a next step, examine the binder that follows.
Query: Identify measured Relative KD associated with Clone 29 (VH4Vκ5), humanised variant of clone #28, human IgG1 (antibody, V domains shown, also called VH4VK5) VH: QVQLQESGPGLVKPSETLSLTCTVSGFSLNNYDMSWVRQAPGKGLEWIGTVSTTYRRYYASWAKGRFTISKDTSSTTVDLQMTSLTAEDTATYFCAASGIWGRGTLVTVSS VL: DIQMTQSPSTLSASVGDRVTITCQSSQRVSSSYLAWYQQKPGQPPKRLIFLASTLESGVPSRFSGSGSGTEFTLTISSLQPDDFATYYCAGTYTGSIWAFGGGTKVEIK
Reply: 2.52
